This listing pairs compounds with measured fraction unbound at 5 h.
test: in vitro; conditions: human, plasma

Solved cases (2 shown):
So, OC(Cn1cncn1)(Cn1cncn1)c1ccc(F)cc1F ? Its fraction unbound at 5 h was 0.858

# compound C[C@@](C(=O)O[C@H]1C[N+]2(CCCc3ccncc3)CCC1CC2)(c1ccccc1)N1CCCCC1 ; its fraction unbound at 5 h = 0.483

Continuing:
The compound identified as O=C1COc2ccc(CNC3CCN(CCN4C(=O)COc5ccc([N+](=O)[O-])cc54)CC3)nc2N1 registered its fraction unbound at 5 h at 0.249

Reported fraction unbound at 5 h of COCCNc1nc(NCc2ccccc2F)c2sccc2n1 : 0.028

Measured fraction unbound at 5 h of CS(=O)(=O)c1ccc2c(c1)N(CCN1CCC(NCc3ccc4c(n3)NC(=O)CO4)CC1)C(=O)CO2 : 0.145

Entry O=C(Cc1ccc(OCc2ccccc2)cc1)NO — recorded fraction unbound at 5 h = 0.0633

CC(C)[C@H]1C(=O)N[C@H](CO)Cc2ccccc2N1C yielded fraction unbound at 5 h of 0.371

Sample Cc1ccc(Cl)cc1NC(=O)CCS(=O)(=O)c1ccc(Br)s1 ; fraction unbound at 5 h observed: 0.0111

For O=C1COc2ccccc2N1CCN1CCC(NCc2cc3c(cn2)OCCO3)CC1 the compound record lists fraction unbound at 5 h as 0.253

Field fraction unbound at 5 h (entry C[C@H]1CN(Cc2cc(Cl)ccc2OCC(=O)O)CCN1C(=O)Cc1ccc(F)cc1 ) reads 0.0287

# compound CCS(=O)(=O)c1ccc2c(c1)N(CCN1CCC(NCc3ccc4c(n3)NC(=O)CO4)CC1)C(=O)CO2 ; its fraction unbound at 5 h = 0.304

For CN1CCN(C2=Nc3cc(Cl)ccc3Nc3ccccc32)CC1 the compound record lists fraction unbound at 5 h as 0.0521

fraction unbound at 5 h recorded for this compound, O=P(c1ccccc1)(c1ccccc1)N(Cc1ccccn1)c1cccnc1 , is 0.0234

response.value for CC(=O)Nc1ccc(O)cc1 (field: fraction unbound at 5 h) = 0.734

Recorded fraction unbound at 5 h (compound Cc1[nH]c2ccc(-c3nnc(SCC(=O)N4CCCc5ccccc54)o3)cc2c1C ): 0.0052

In plain terms, O=C1COc2ccc(CNC3CCN(CCN4C(=O)COc5ccc(F)cc54)CC3)nc2N1 has a documented fraction unbound at 5 h of 0.17

The reported value for CCCN(c1cccnc1)P(=O)(c1ccccc1)c1ccccc1 in terms of fraction unbound at 5 h is 0.0205

For Cc1ccc(CNC(=O)CCS(=O)(=O)c2ccc(Br)cc2)cc1 the compound record lists fraction unbound at 5 h as 0.013

// fraction unbound at 5 h value for O=C1Nc2cc(C(F)(F)F)ccc2C1(O)c1cc(Cl)ccc1O (stereo not given) : 0.0149

// field: fraction unbound at 5 h; key: OCCN1CCN(CCCN2c3ccccc3Sc3ccc(C(F)(F)F)cc32)CC1 ; value = 0.0119

----------
experiment: in vitro; details: hepatocytes
Property: hepatocyte CLint; scope: individual molecules

Form field hepatocyte CLint, entry N#CCC(CNc1ncc(C(F)(F)F)cc1Cl)OC(=O)c1c(F)cccc1F (stereo unspecified) : > 150 µL/min/1e6 cells

Reported hepatocyte CLint of Cc1c(C(=O)Nc2ccccc2)sc2ncnc(O)c12 : > 150 µL/min/1e6 cells

Given item C[C@H](Oc1ccc(Cl)cc1CN1CCN(C(=O)Cc2ccc(Cl)cc2)[C@@H](C)C1)C(=O)O , the value recorded as its hepatocyte CLint is < 3 µL/min/1e6 cells

molecule CCN(CC)c1ccc2cc(C(C)=O)c(=O)oc2c1 , hepatocyte CLint observed: > 150 µL/min/1e6 cells

Continuing:
Entry Cn1sc(=O)c2cc(S(=O)(=O)NC3CC3)ccc21 ; hepatocyte CLint = > 150 µL/min/1e6 cells

The molecule listed as CC1(C)[C@@H]2CC[C@@]1(CS(=O)(=O)N1CCN(c3ccc(C#N)cn3)CC1)C(=O)C2 shows hepatocyte CLint equal to > 150 µL/min/1e6 cells
